- studySystem: P2X7 receptor (Homo sapiens, UniProt Q99572)
- Sequence (Q99572 1-595): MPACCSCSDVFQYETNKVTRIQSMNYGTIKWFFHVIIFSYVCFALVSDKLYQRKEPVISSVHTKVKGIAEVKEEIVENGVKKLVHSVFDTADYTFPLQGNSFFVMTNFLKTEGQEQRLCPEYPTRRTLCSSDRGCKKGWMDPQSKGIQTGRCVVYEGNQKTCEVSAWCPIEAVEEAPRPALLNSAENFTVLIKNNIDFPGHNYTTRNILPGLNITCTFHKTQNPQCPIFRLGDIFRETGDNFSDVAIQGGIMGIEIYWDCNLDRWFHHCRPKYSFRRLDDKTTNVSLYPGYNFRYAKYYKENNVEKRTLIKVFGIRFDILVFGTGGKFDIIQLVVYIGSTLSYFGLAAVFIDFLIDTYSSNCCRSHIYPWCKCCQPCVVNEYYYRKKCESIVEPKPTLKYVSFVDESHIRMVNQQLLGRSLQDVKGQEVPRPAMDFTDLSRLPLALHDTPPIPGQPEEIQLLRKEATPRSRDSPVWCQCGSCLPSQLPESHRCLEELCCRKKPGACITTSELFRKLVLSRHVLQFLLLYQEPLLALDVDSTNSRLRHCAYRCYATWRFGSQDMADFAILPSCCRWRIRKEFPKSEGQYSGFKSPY
- testDescription: IL-1β release assay in differentiated THP-1 cells stimulated with BzATP (Example 9); % inhibition and IC50
- measurementSetup: THP-1 cells differentiated with LPS and IFN-γ, 30 min pretreatment, BzATP 250 uM, IL-1β by ELISA
pIC50: −log10 of the molar value.
readoutName: pIC50

These solved cases illustrate the format of a correct answer.
{"compound": "C[C@H](CO)n1ccc2c(NC(=O)Cc3ccc(C(F)(F)F)cc3C(F)(F)F)cccc2c1=O [Compound 361]", "pIC50": 7.84}
{"compound": "C[C@H](CO)n1ccc2c(NC(=O)[C@H](C)c3ccc(Cl)c(Cl)c3)cccc2c1=O [Compound 320]", "pIC50": 8.02}
{"compound": "O=C(Cc1ccc(Cl)cc1Cl)Nc1cccc2c(=O)n(CCO)ccc12 [Compound 69]", "pIC50": 7.97}

[I] CNC(=O)[C@@H](C(C)C)n1ccc2c(NC(=O)[C@@H](C)c3ccc(Cl)cc3)cccc2c1=O [Compound 276]
[II] O=C(Cc1cc(Cl)ccc1C(F)(F)F)Nc1cccc2c(=O)n(CCO)ccc12 [Compound 68]
[III] CC(C)(CO)n1ccc2c(NC(=O)Cc3ccc(Cl)c(C(F)(F)F)c3)cccc2c1=O [Compound 369]
[IV] CC(C)[C@H](CO)n1ccc2c(NC(=O)[C@H](C)c3ccc(Cl)cc3)cccc2c1=O [Compound 273]
[V] CC(C)(CO)n1ccc2c(NC(=O)Cc3ccc(F)c(Cl)c3)cccc2c1=O [Compound 372]
**Query** Would you mind ranking these compounds by ascending pIC50? In plain terms: list the labels in the order you were asked to.
**Result** II, V, I, III, IV

* * *

- studySystem: P2X7 receptor (Homo sapiens, UniProt Q99572)
- testDescription: IL-1β release assay in differentiated THP-1 cells stimulated with BzATP (Example 9); % inhibition and IC50
- measurementSetup: THP-1 cells differentiated with LPS and IFN-γ, 30 min pretreatment, BzATP 250 uM, IL-1β by ELISA
- Procedure: The cells are then pretreated for 30 minutes with the compound of interest at the appropriate concentration in RPMI media containing 100 IU/mL penicillin, 100 ug/mL streptomycin. […] 30 uL of cell supernatant is then collected and IL-1β levels determined via ELISA (R&D systems Cat. # HSLB50) according to manufacturer's recommendations using the Tecan Safire plate reader. Background adjusted IL-1β levels of drug treated and non-treated cells are used to calculate the percent inhibition. […]
readoutName: IC50 (nM)

These solved cases illustrate the format of a correct answer.
{"compound": "CC(C(=O)Nc1cccc2c(=O)n([C@H](C)C(N)=O)ccc12)c1ccc(F)cc1 (some centres unmarked) [Compound 299]", "result": 24.8}
{"compound": "O=C(Cc1cc(C(F)(F)F)cc(C(F)(F)F)c1)Nc1cccc2c(=O)n(CCO)ccc12 [Compound 64]", "result": 113}
{"compound": "C[C@H](C(N)=O)n1ccc2c(NC(=O)Cc3ccc(Cl)c(Cl)c3)cccc2c1=O [Compound 239]", "result": 4.05}
{"compound": "CC(C(=O)Nc1cccc2c(=O)n(C[C@@H]3CCCN3)ccc12)c1ccc(Cl)cc1 (some centres unmarked) [Compound 246]", "result": 113}
{"compound": "CC(C(=O)Nc1cccc2c(=O)n([C@@H](C)C(N)=O)ccc12)c1ccc(Cl)c(C(F)(F)F)c1 (some centres unmarked) [Compound 356]", "result": 15.5}

[a] CC(C)[C@H](C(=O)NC1CC1)n1ccc2c(NC(=O)[C@@H](C)c3ccc(Cl)cc3)cccc2c1=O [Compound 281]
[b] CC(C)(CO)n1ccc2c(NC(=O)Cc3cccc(C(F)(F)F)c3F)cccc2c1=O [Compound 368]
**Query** Smaller IC50 value, a vs b ? Let me know the label of the one you choose.
**Result** a
(a: 7.39 nM, b: 60.3 nM)

* * *

- studySystem: P2X7 receptor (Homo sapiens)
- Sequence (Q99572 1-595): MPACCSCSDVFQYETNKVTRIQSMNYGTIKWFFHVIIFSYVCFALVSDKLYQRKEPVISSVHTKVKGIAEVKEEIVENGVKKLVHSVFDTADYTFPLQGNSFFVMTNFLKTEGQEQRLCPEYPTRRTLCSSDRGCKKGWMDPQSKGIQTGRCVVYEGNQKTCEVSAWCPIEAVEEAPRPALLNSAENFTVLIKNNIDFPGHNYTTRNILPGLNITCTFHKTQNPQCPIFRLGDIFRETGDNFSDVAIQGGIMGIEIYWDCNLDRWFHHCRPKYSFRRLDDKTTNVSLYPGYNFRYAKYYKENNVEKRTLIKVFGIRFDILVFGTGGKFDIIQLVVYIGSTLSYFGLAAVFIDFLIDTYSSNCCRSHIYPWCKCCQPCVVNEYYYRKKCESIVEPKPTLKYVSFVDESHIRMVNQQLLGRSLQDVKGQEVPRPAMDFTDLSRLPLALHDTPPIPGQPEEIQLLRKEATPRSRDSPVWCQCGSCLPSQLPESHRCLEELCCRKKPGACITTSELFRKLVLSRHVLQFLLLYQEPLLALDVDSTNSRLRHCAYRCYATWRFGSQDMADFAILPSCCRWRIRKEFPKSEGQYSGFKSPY
- testDescription: IL-1β release assay in differentiated THP-1 cells stimulated with BzATP (Example 9); % inhibition and IC50
- measurementSetup: THP-1 cells differentiated with LPS and IFN-γ, 30 min pretreatment, BzATP 250 uM, IL-1β by ELISA
pIC50: −log10 of the molar value.
readoutName: pIC50

These solved cases illustrate the format of a correct answer.
{"entrySmiles": "O=C(Cc1ccc(Cl)cc1C(F)(F)F)Nc1cccc2c(=O)n(CCO)ccc12", "result": 6.73}
{"entrySmiles": "CC(C)C[C@H](CO)n1ccc2c(NC(=O)[C@@H](C)c3ccc(Cl)cc3)cccc2c1=O", "result": 7.22}
{"entrySmiles": "C[C@@H](C(N)=O)n1ccc2c(NC(=O)Cc3ccc(Cl)cc3F)cccc2c1=O", "result": 7.86}
{"entrySmiles": "C[C@@H](C(N)=O)n1ccc2c(NC(=O)Cc3ccc(C(F)(F)F)c(F)c3)cccc2c1=O", "result": 7.51}

[A] C[C@H](C(=O)Nc1cccc2c(=O)n([C@H](C)C(N)=O)ccc12)c1ccc(Cl)c(Cl)c1
[B] C[C@H](CO)n1ccc2c(NC(=O)Cc3cccc(C(F)(F)F)c3F)cccc2c1=O
[C] CC(C)(CO)n1ccc2c(NC(=O)Cc3ccc(Cl)c(Cl)c3)cccc2c1=O
[D] CNCCn1ccc2c(NC(=O)Cc3ccc(Cl)c(C(F)(F)F)c3)cccc2c1=O
**Query** # sort list by recorded pIC50, greatest to least In plain terms: list the labels in the order you were asked to.
**Result** A, B, D, C

* * *

- studySystem: P2X7 receptor (Homo sapiens)
- Construct: host or cells: THP-1 cells differentiated with LPS and IFN-γ
- Sequence (Q99572 1-595): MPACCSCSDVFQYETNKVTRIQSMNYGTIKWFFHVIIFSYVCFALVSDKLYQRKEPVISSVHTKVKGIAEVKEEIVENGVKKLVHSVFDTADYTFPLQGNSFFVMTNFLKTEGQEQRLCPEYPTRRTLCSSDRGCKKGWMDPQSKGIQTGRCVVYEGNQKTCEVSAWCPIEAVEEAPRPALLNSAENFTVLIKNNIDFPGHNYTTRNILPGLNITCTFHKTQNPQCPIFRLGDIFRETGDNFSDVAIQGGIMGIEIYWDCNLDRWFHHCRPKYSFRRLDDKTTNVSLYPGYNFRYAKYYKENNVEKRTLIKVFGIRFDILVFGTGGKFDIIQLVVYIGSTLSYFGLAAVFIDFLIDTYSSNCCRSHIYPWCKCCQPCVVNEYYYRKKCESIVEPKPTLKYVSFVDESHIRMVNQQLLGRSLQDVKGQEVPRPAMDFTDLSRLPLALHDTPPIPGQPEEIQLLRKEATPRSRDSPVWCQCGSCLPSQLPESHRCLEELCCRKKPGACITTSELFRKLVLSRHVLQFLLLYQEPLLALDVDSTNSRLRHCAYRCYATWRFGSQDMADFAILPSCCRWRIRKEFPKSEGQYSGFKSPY
- testDescription: IL-1β release assay in differentiated THP-1 cells stimulated with BzATP (Example 9); % inhibition and IC50
- Assay type: cell-based
- measurementSetup: THP-1 cells differentiated with LPS and IFN-γ, 30 min pretreatment, BzATP 250 uM, IL-1β by ELISA
pIC50: −log10 of the molar value.
readoutName: pIC50

{"entrySmiles": "C[C@@H](C(N)=O)n1ccc2c(NC(=O)Cc3ccc(C(F)(F)F)cc3)cccc2c1=O", "readoutName": "pIC50", "result": 7.45}
{"entrySmiles": "C[C@@H](C(N)=O)n1ccc2c(NC(=O)Cc3ccc(Cl)cc3C(F)(F)F)cccc2c1=O", "readoutName": "pIC50", "result": 8.20}
{"entrySmiles": "C[C@H](CO)n1ccc2c(NC(=O)Cc3ccc(Cl)c(F)c3)cccc2c1=O", "readoutName": "pIC50", "result": 7.88}
{"entrySmiles": "C[C@H](C(N)=O)n1ccc2c(NC(=O)Cc3ccc(Cl)cc3)cccc2c1=O", "readoutName": "pIC50", "result": 7.46}

[a] C[C@H](C(N)=O)n1ccc2c(NC(=O)Cc3ccc(F)c(Cl)c3)cccc2c1=O
[b] O=C(Cc1ccc(C(F)(F)F)cc1C(F)(F)F)Nc1cccc2c(=O)n(CCO)ccc12
[c] CC(C)(CO)n1ccc2c(NC(=O)Cc3ccc(Cl)c(F)c3)cccc2c1=O
[d] C[C@H](C(N)=O)n1ccc2c(NC(=O)Cc3ccc(Cl)cc3F)cccc2c1=O
**Query** # sort list by recorded pIC50, greatest to least In plain terms: list the labels in the order you were asked to.
**Result** a, d, b, c
